target: Cytochrome P450 3A4 (Homo sapiens) (UniProt P08684); experiment: qHTS Assay for Inhibitors and Substrates of Cytochrome P450 3A4 (AID 884); conditions: recombinant CYP3A4, Luciferin-PPXE luminescence; series mostly up to 57.1 µM; further: nearly all actives have a fitted effect of over 50% in size; further: potency means the concentration at half of the fitted maximal effect
Sequence (P08684 whole entry, looked up): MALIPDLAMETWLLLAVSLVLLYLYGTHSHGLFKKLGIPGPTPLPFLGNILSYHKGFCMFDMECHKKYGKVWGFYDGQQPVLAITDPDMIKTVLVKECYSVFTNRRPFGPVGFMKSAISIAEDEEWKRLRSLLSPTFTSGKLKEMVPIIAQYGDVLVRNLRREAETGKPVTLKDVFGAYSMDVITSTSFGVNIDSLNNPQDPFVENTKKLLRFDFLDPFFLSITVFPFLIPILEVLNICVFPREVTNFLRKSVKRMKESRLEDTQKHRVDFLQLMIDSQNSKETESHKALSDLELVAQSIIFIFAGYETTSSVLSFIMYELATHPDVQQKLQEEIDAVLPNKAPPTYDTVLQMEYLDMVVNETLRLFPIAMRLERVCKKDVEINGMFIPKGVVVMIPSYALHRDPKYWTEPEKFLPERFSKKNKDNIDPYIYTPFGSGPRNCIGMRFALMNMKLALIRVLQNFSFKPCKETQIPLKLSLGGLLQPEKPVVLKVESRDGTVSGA
Results filed as inconclusive are left out. Calls of active or inactive are those of the source. The call rests on the fitted dose curve; in most records, active means well fitted inhibition curve with a large enough effect; inconclusive means small, poorly fitted or top-dose-only effect; inactive means no such curve, though single readings can be large or run the other way.
Observation Type: Potency

Some molecules with recorded Potency:
* COc1c(-c2ccccc2)oc2c(ccc3occc32)c1=O | 3.16 µM (active)
* CCCCCCCCCc1ccc(OCCOCCOCCOCCOCCOCCOCCOCCOCCO)cc1 | 31.6 µM (active)
* COc1cc2c(cc1OC)C1C(=O)c3c(O)cc4c(c3OC1CO2)C=CC(C)(C)O4 (stereo unspecified) | 15.8 µM (active)
* COc1ccc(-c2oc3cc(OC)ccc3c(=O)c2O)cc1 | 12.6 µM (active)

Need Potency for each of these molecules.
1. C=C[C@@H]1C[C@@]1(C)[C@@H](NP(=O)(c1ccccc1)c1ccccc1)c1ccccc1
2. O=C1c2ccccc2-c2cc([N+](=O)[O-])c([N+](=O)[O-])cc21
3. C=C1CC2C(CC[C@]3(C)C(=O)CCC23)[C@]2(C)C=CC(=O)C=C12 (stereo partly specified)
4. COc1ccc(C(=O)O)cc1OC
5. CCC/C=C(\CCC)C(NP(=O)(c1ccccc1)c1ccccc1)c1ccccc1 (stereo unspecified)
6. O=S(=O)(O)c1cc(N=C=S)ccc1/C=C/c1ccc(N=C=S)cc1S(=O)(=O)O
7. CC1(C)CC(N=C=O)CC(C)(CN=C=O)C1 (stereo unspecified)

1: 10 µM (active); 2: 0.501 µM (active); 3: inactive; 4: inactive; 5: 6.31 µM (active); 6: 12.6 µM (active); 7: 25.1 µM (active)
